# assay_protocol: Hydrolytic stability: hydrolysis of the 19F fluorosilane to the silanol at physiological pH (7.0)
# Format: physicochemical
# condition_description: hydrolytic halflife of the 19F compound at pH 7.0, calculated from the kinetics
Each entry below carries its reported t1/2.

* CC(C)[Si](F)(c1cccc(CCOC2CCCCO2)c1)C(C)C (racemic) | > 100.0 h
* CC(C)[Si](F)(c1ccc(CCCO)cc1)C(C)C | > 100.0 h

Next, consider the following compound.
# input compound: CC(C)[Si](F)(c1cccc(CCCOC2CCCCO2)c1)C(C)C (racemic) ; wanted: its t1/2 > 100.0 h
